Target: UniProt:P28223
Sequence (P28223 whole entry): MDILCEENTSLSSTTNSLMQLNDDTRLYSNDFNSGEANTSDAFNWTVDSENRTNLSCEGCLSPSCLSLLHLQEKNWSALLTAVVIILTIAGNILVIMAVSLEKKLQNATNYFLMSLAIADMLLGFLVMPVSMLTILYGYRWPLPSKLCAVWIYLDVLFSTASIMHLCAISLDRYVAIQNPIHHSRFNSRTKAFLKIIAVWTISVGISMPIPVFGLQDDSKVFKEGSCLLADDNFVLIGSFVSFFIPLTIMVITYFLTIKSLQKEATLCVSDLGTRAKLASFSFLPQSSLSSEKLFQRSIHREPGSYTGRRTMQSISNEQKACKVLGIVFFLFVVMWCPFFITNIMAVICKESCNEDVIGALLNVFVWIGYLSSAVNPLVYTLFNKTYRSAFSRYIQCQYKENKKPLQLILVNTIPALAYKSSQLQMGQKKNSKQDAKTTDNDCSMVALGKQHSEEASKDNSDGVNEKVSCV
Test: 5-HT2A receptor isotope competition affinity assay
Format: binding
Conditions: competition with [3H]-Ketanserin, 1 hour, room temperature; read-out: 5-HT2A receptor/Ki
pKi: −log10 of the molar value.
Collected pKi values appear next to each entry.

Below, each entry is followed by its recorded pKi result.
COc1ncncc1CCCN1CCC(c2c[nH]c3ccccc23)C1 (stereo not shown) = > 7.00
c1ccc2c(C3CCN(CCCc4ncsn4)C3)c[nH]c2c1 (stereo not shown) = > 7.00
COc1ccccc1CCCN1C2CCC1C(c1c[nH]c3ccccc13)C2 (stereo not shown) = > 7.00
Oc1cccc2[nH]cc(C3CN(CCCc4cc(F)ccc4F)CCO3)c12 (stereo not shown) = > 7.00
c1ccc2c(C3CCN(CCCc4ncon4)C3)c[nH]c2c1 (stereo not shown) = > 7.00

Given the entry `COc1ccccc1CCCN1CC(c2c[nH]c3ccccc23)C1` , report its measured pKi.
> 7.00

Given the entry `C1=C(c2c[nH]c3ccccc23)CN(CCCn2nccn2)CC1` , report its measured pKi.
> 7.00

Given the entry COc1ccccc1CCN1CCC(c2c[nH]c3cccc(O)c23)C1 (stereo not shown) , report its measured pKi.
> 7.00

Given the entry `Cc1nn(CCCN2CC[C@@H](c3c[nH]c4cccc(O)c34)C2)nc1C` , report its measured pKi.
> 7.00

Given the entry Cc1cnn(CCCN2CCC(c3c[nH]c4cccc(O)c34)C2)n1 (stereo not shown) , report its measured pKi.
> 7.00

Given the entry COc1ccccc1CCCN1CCC(c2c[nH]c3cccc(OC)c23)C1 (stereo not shown) , report its measured pKi.
> 7.00

Given the entry `c1ccc2c([C@@H]3CCN(CCCn4nccn4)C3)c[nH]c2c1` , report its measured pKi.
> 7.00

Given the entry COc1ccccc1CCCN1CCC(c2c[nH]c3cccc(O)c23)C1 (stereo not shown) , report its measured pKi.
> 7.00

Given the entry c1ccc2c(C3CCN(CCc4nnc5sccn45)C3)c[nH]c2c1 (stereo not shown) , report its measured pKi.
> 7.00

Given the entry Cc1nonc1CCCN1CCC(c2c[nH]c3ccccc23)C1 (stereo not shown) , report its measured pKi.
> 7.00

Given the entry c1ccc2c(C3CCN(CC4CCn5c(nnc5C5CC5)C4)C3)c[nH]c2c1 (stereo not shown) , report its measured pKi.
> 7.00

Given the entry Fc1ccc2c(C3CCN(CCCc4nncn4CC(F)(F)F)C3)c[nH]c2c1 (stereo not shown) , report its measured pKi.
> 7.00

Given the entry `Oc1cccc2[nH]cc([C@H]3CCN(CCCn4nccn4)C3)c12` , report its measured pKi.
> 7.00

Given the entry CC(CCc1nncn1C(C)C)N1CCC(c2c[nH]c3cc(F)ccc23)C1 (stereo not shown) , report its measured pKi.
> 7.00

Given the entry `COc1ccc(F)c2nnc(CCN3CC(c4c[nH]c5cc(F)ccc45)C3)n12` , report its measured pKi.
> 7.00

Given the entry CC(C)c1nc(CCCN2CCC(c3n[nH]c4ccccc34)C2)no1 (stereo not shown) , report its measured pKi.
> 7.00

Given the entry CC(C)n1cnnc1CCCN1CCC(c2c[nH]c3ccccc23)C1 (stereo not shown) , report its measured pKi.
> 7.00

Given the entry Fc1ccc2c(C3CCN(CCCc4nncn4C4CCC4)C3)c[nH]c2c1 (stereo not shown) , report its measured pKi.
> 7.00

Given the entry COc1ccccc1CCCN1CCC(c2c[nH]c3ncccc23)C1 (stereo not shown) , report its measured pKi.
> 7.00

Given the entry Cc1nnc(CCCN2CCC(n3ccc4cc(F)ccc43)C2)n1C(C)C (stereo not shown) , report its measured pKi.
> 7.00
